Collected pIC50 values appear next to each entry.
- Test system: Leishmania infantum
- assay_protocol: MMV: Inhibition of Leishmania infantum (MHOM/MA/BE/67) in vitro.
- Format: functional, organism-based
Scale: negative log10 of molar concentration, which is what pIC50 denotes.

Reference set (8 entries):
Problem: Give reported pIC50 for OC(CNC1CCCCC1)Cn1c2ccccc2c2ccccc21 (centres undefined) (Leishmania infantum)
Result: 4.78

Problem: Lab note: record pIC50 of CCN(CC)c1cc(C)c2cc(NC(=O)c3cccc(OC)c3)ccc2n1 tested on Leishmania infantum.
Result: 4.79

Problem: Send back Leishmania infantum pIC50 of Oc1ccc(Br)cc1CN1CCN(Cc2cccc(F)c2)CC1 only.
Result: 4.60

Problem: Give pIC50 for CCN(CC)CCNc1ncnc2c1[nH]c1ccc(Cl)cc12 tested on Leishmania infantum.
Result: 4.79

Problem: State pIC50 (Leishmania infantum) of O=C(Nc1ccc(CN2CCOCC2)cc1)c1ccc(-c2cc(Cl)ccc2Cl)o1 .
Result: 4.60

Problem: Find the measured pIC50 of CN(C)c1ccc(N=Cc2ccc(N3CCOCC3)cc2)cc1 with Leishmania infantum as test system.
Result: 5.00

Problem: Enter pIC50 (test system Leishmania infantum) for N#Cc1nc(Cc2cccc3ccccc23)oc1N1CCN(C(c2ccccc2)c2ccccc2)CC1
Result: 4.60

Problem: Report its pIC50 with Leishmania infantum as the test system: CCOc1c(Cl)cc(CNC(C)C(O)c2ccccc2)cc1OC (centres undefined)
Result: 4.78

Continuing:
Problem: Please tell me the measured pIC50 for CCC(C)NCC(O)(c1ccc(Cl)cc1)c1ccc(Cl)cc1 (centres undefined) ; system: Leishmania infantum.
Result: 4.80

Problem: Please respond with reported pIC50 (system Leishmania infantum) for Cc1cc(NCCN2CCCCC2)c2ccc3ccccc3c2n1 .
Result: 6.08

Problem: Param request: pIC50 | system Leishmania infantum | item CCN(CC)CCNc1ncnc2c1[nH]c1ccc(Br)cc12
Result: 4.80

Problem: Recall the reported pIC50 of Cc1cc(C)c2c(c1)OCN(Cc1ccccc1Cl)C2 when tested on Leishmania infantum.
Result: 4.79

====

- Test system: Leishmania infantum
- assay_protocol: MMV: Inhibition of Leishmania infantum (MHOM/MA/BE/67) in vitro.
- Format: functional, organism-based
// returns Criterion not met unless IC50 is strictly below 2 µM, in which case Criterion met

Please review the entries below; each comes with its answer.
Problem: Does this compound meet the criterion IC50 < 2 µM? O=C(Nc1ccccc1O)c1ccc(Oc2cccc(C(=O)Nc3ccccc3O)c2)cc1
Result: Criterion not met

Problem: For Nc1nc(Nc2cccc(F)c2)nc2ccccc12 , is the recorded IC50 below the cut-off of 2 µM?
Result: Criterion not met

Problem: I wonder whether Cc1[nH]c(-c2ccc(F)cc2)cc1C(=O)NC1CCN(Cc2ccccc2)CC1 has IC50 below 2 µM. Can you tell?
Result: Criterion not met

Problem: Find out if reported IC50 for Oc1c(C(Nc2ccccn2)c2cccc(Oc3ccccc3)c2)ccc2cccnc12 (stereo unspecified) is less than 2 µM
Result: Criterion met

Problem: Decide: IC50 of COc1ccc(CNC2CCN(c3ccc(NC(=O)c4cccc(Cl)c4)cc3)CC2)cc1OC strictly below 2 µM?
Result: Criterion not met

Problem: Confirm or reject: IC50 of Cc1ccc(-c2nc3ccccc3o2)cc1NCc1cc(Cc2ccccc2)ccc1O lies strictly below 2 µM
Result: Criterion not met

Problem: # TODO verify IC50 < 2 µM strictly for this compound: O=C(Nc1nc(-c2ccccn2)cs1)c1ccccc1Br
Result: Criterion met

Problem: In plain terms, does c1ccc2c(NCCc3c[nH]c4ccccc34)c3ccccc3nc2c1 come in under 2 µM for IC50?
Result: Criterion met

More entries:
Problem: Please indicate whether the reported IC50 of COc1cccc(NC(=O)[C@H](C(C)C)n2c(=O)[nH]c3ccccc3c2=O)c1 is strictly below 2 µM.
Result: Criterion not met

Problem: # strict comparison: is reported IC50 < 2 µM? input = O=C1c2ccccc2C2=Nc3ccccc3SC(c3cccc(F)c3)C12 (stereo unspecified)
Result: Criterion not met

Problem: Please determine if Cc1ccc(C(=O)c2oc3ccc4c(C)cc(=O)oc4c3c2C)cc1 is below 2 µM in terms of IC50.
Result: Criterion not met

From: ChEMBL document CHEMBL2028040
